These data points were gathered from ChEMBL document CHEMBL1144593.

- targetUnderTest: Cathepsin L2 (Homo sapiens, UniProt O60911)
- Sequence (O60911 whole entry): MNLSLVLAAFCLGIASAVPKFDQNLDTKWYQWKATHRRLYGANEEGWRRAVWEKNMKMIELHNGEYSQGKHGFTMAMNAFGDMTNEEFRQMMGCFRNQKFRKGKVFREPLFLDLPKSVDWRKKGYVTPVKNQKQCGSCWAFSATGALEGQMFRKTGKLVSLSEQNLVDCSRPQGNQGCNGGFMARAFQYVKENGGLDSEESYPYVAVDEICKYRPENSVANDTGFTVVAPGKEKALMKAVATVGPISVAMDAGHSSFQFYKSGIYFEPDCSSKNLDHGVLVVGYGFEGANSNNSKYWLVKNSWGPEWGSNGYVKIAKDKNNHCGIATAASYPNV
- method: Inhibition of human recombinant cathepsin V
pIC50: −log10 of the molar value.
attributeMeasured: pIC50

Use the examples below as a reference point.
O=C1O[C@H]2CN1CC[C@@H]2Br    < 5.00
Cc1cccc(O[C@@H]2CCNC[C@H]2O)c1C    < 4.00
Cc1cccc(OCC2CN(C)C(=O)O2)c1C (centres undefined)    < 4.00

Measured pIC50, "Cc1cccc(O[C@@H]2CCNC[C@@H]2O)c1C" : < 4.00

----------
- targetUnderTest: Cathepsin K (Homo sapiens, UniProt P43235)
- Sequence (P43235 whole entry): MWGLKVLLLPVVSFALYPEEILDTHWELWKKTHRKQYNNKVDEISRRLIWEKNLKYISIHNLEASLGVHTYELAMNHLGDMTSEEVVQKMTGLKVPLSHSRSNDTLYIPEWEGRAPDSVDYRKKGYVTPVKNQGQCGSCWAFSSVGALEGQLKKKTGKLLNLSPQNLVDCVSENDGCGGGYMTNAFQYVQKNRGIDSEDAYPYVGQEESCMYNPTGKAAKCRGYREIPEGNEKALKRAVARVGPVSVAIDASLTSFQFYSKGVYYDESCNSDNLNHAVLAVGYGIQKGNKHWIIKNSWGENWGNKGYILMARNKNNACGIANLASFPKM
- method: Inhibition of human recombinant cathepsin K
attributeMeasured: IC50

Cc1cccc(O[C@@H]2CCNC[C@H]2O)c1C    > 100 µM
Cc1cccc(OCC2CN(C)C(=O)O2)c1C (centres undefined)    > 100 µM
Cc1cccc(O[C@@H]2CCNC[C@@H]2O)c1C    > 100 µM

Measured IC50, "O=C1O[C@H]2CN1CC[C@@H]2Br" : > 30 µM
